Molecular target: Histamine H3 receptor (Homo sapiens)
Sequence (Q9Y5N1 whole entry): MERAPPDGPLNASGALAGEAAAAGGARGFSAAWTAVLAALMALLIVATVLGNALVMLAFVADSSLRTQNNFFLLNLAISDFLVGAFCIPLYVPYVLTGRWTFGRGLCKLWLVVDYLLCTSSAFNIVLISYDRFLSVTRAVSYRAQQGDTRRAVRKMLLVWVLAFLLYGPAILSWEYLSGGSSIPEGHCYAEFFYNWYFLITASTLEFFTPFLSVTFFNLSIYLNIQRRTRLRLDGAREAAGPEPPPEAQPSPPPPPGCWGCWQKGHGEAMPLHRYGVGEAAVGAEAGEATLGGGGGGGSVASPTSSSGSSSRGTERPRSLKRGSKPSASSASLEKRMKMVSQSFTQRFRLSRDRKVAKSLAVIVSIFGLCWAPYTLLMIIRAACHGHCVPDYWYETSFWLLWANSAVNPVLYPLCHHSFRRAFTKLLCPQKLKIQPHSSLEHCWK
Assay: Inverse agonist activity at recombinant human histamine H3 receptor expressed in CHO-K1 cells preincubated for 10 mins followed by [35S]GTPgammaS addition and measured after 60 mins by TopCount NXT based scintillation analysis
// map EC50 onto a label; ranges low class (below 0.6 nM), middle class (0.6 nM to below 1 nM), high class (1 nM or more)

C[C@]12CC[C@@H]3c4ccc(OCCCCN5CCCC5)cc4CC[C@H]3[C@@H]1CC[C@@H]2N1CCCC1; middle class

Record `CC(=O)C1CCN(CCCOc2ccc3c(c2)CC[C@@H]2[C@@H]3CC[C@]3(C)[C@@H](N4CCCC4)CC[C@@H]23)CC1` — which class?
high class

---

Target: Histamine H3 receptor (Homo sapiens)
Assay: Displacement of N-alpha-[methyl-3H]-methylhistamine dihydrochloride from recombinant human histamine H3 receptor expressed in CHO-K1 cells assessed as inhibition constant incubated for 30 mins by liquid scintillation analysis
// map Ki onto a label; ranges bin 0: < 0.8 nM; bin 1: ≥ 0.8 nM and < 3 nM; bin 2: ≥ 3 nM

Here's what some known entries look like.
C[C@]12CC[C@@H]3c4ccc(OCc5ccccn5)cc4CC[C@H]3[C@@H]1CC[C@@H]2N1CCCC1; bin 1
C[C@]12CC[C@@H]3c4ccc(OCCCN5CCC(C(N)=O)CC5)cc4CC[C@H]3[C@@H]1CC[C@@H]2N1CCCC1; bin 2
C[C@]12CC[C@@H]3c4ccc(OCc5ccc(Cl)cn5)cc4CC[C@H]3[C@@H]1CC[C@@H]2N1CCCC1; bin 1
C[C@]12CC[C@@H]3c4ccc(OCCCN5CCC(O)C5)cc4CC[C@H]3[C@@H]1CC[C@@H]2N1CCCC1 (stereo not given in full); bin 2
CC(=O)C1CCN(CCCOc2ccc3c(c2)CC[C@@H]2[C@@H]3CC[C@]3(C)[C@@H](N4CCCC4)CC[C@@H]23)CC1; bin 1

Record `C[C@]12CC[C@@H]3c4ccc(OCCCN5CCCCCC5)cc4CC[C@H]3[C@@H]1CC[C@@H]2N1CCCC1` — which class?
bin 0

Record `C[C@]12CC[C@@H]3c4ccc(OCCCN5CCCC5)cc4CC[C@H]3[C@@H]1CC[C@@H]2N1CCCC1` — which class?
bin 0

Record C[C@@]12CC[C@@H]3c4ccc(OCCCN5CCCC5)cc4CC[C@H]3[C@@H]1CCC2N1CCCC1 (stereo not given in full) — which class?
bin 1

Record CC1CCCN1CCCOc1ccc2c(c1)CC[C@@H]1[C@@H]2CC[C@]2(C)[C@@H](N3CCCC3)CC[C@@H]12 (mixture of isomers) — which class?
bin 0

Record `C[C@]12CC[C@@H]3c4ccc(OCc5ccccc5)cc4CC[C@H]3[C@@H]1CC[C@@H]2N1CCCC1` — which class?
bin 2

Record `C[C@H]1CCCN1CCCOc1ccc2c(c1)CC[C@@H]1[C@@H]2CC[C@]2(C)[C@@H](N3CCCC3)CC[C@@H]12` — which class?
bin 0

Record `C[C@]12CC[C@@H]3c4ccc(OCc5ccncc5)cc4CC[C@H]3[C@@H]1CC[C@@H]2N1CCCC1` — which class?
bin 1

---

Measured Ki, listed per entry.
Assay: Displacement of [3H]quinuclidinyl benzilate from Wistar rat cortex muscarinic AChR assessed as inhibition constant by liquid scintillation counting analysis
Format: tissue-based
Entry rule: numbers only, all in nM.

Some compounds with known Ki results, for comparison:
C[C@]12CC[C@@H]3c4ccc(OCCCN5CCCC5)cc4CC[C@H]3[C@@H]1CC[C@@H]2N1CCCC1; 110
C[C@]12CC[C@@H]3c4ccc(OCc5ccc(Cl)cn5)cc4CC[C@H]3[C@@H]1CC[C@@H]2N1CCCC1; 705
C[C@H]1CCCN1CCCOc1ccc2c(c1)CC[C@@H]1[C@@H]2CC[C@]2(C)[C@@H](N3CCCC3)CC[C@@H]12; 122
Clc1ccc(CCCOCCCN2CCCCC2)cc1 [PITOLISANT]; 19
C[C@]12CC[C@@H]3c4ccc(OCc5cccnc5)cc4CC[C@H]3[C@@H]1CC[C@@H]2N1CCCC1; 797

Dear colleague, I am looking for the recorded Ki of the following compound: CC1CCCN1CCCOc1ccc2c(c1)CC[C@@H]1[C@@H]2CC[C@]2(C)[C@@H](N3CCCC3)CC[C@@H]12 (mixture of isomers)
224

Dear colleague, I am looking for the recorded Ki of the following compound: `C[C@]12CC[C@@H]3c4ccc(OCc5ccccn5)cc4CC[C@H]3[C@@H]1CC[C@@H]2N1CCCC1`
1080
